Subject Of Test: T1, deamidase polypeptide from Chryseobacterium sp-62563 (deamidase domain of the pro-form SEQ ID NO: 5) (Chryseobacterium sp-62563)
T1 chain: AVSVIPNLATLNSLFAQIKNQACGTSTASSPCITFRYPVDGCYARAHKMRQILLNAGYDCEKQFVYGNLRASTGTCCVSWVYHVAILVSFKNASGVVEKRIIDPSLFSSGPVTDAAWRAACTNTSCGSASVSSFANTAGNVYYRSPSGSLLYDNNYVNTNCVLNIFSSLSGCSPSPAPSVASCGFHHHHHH
Assay Procedure: cell-based or functional assay
Listing of entries alongside the reported Relative activity of "activated" sample (% initial rate).

{"columns": ["Binder", "Reading"],
 "data": [
  ["variant deamidase propeptide Y45G of Chryseobacterium sp-62563 (SEQ ID NO: 2) (other) NQDPNLVAKESNETAMKDFGKTVPVGIEKEDGKFKISFMVTAQPGEIKDSKENAAYISMIKTAVENETPIHVFLKANTNEIAKVDKATDDDIRYFKSVFTKEVKEENRK", "≥ 100%"]
]}

Prompt: Which Relative activity of "activated" sample (% initial rate) is reported for this binder? variant deamidase propeptide V23S of Chryseobacterium sp-62563 (SEQ ID NO: 2) (other) NQDPNLVAKESNETAMKDFGKTSPVGIEKEDGKFKISFMVTAQPYEIKDSKENAAYISMIKTAVENETPIHVFLKANTNEIAKVDKATDDDIRYFKSVFTKEVKEENRK
Completion: ≥ 100%

Data origin: patent EP4242303A1
